Numbers sourced from the supplement of paper PMC11451515.

For each entry below, report its cell viability value.
- Tested on: NOMO1
- Method: cell viability relative to DMSO control; higher = less cytotoxic
- Test context: RPMI 5 mM glucose + 10% dialyzed FBS; 48 h; 1.71 µM
Give bare numbers, in %.

Study these solved cases before continuing.
{"columns": ["Smiles repr", "Observation type", "Observed result"],
 "data": [
  ["COc1cc([C@@H]2c3cc4c(cc3[C@H](O)[C@H]3COC(=O)[C@H]23)OCO4)cc(OC)c1OC", "cell viability", 18.2],
  ["NNC(=O)c1ccncc1", "cell viability", 126],
  ["CC(=O)[C@H]1CC[C@H]2[C@@H]3C/C=C4/C[C@@H](O)CC[C@]4(C)[C@H]3CC[C@]12C", "cell viability", 121],
  ["Cc1nc(C(=O)NCC(=O)O)c(O)c2ccc(Oc3ccccc3)cc12", "cell viability", 94.9],
  ["CCCCc1ccc(N[S+](=O)([O-])c2ccc(C)c(C(=O)N3CCN(c4cccc(C)c4C)CC3)c2)cc1", "cell viability", 119]
]}

Attention now turns to another entry.
Note down cell viability recorded for "Cc1cccc(Nc2nc(N[C@@H]3CCCC[C@@H]3N)ncc2C(N)=O)c1" 82.4
